# system: Oxysterols receptor LXR-beta (Homo sapiens) (UniProt P55055)
# Sequence (P55055 whole entry, looked up): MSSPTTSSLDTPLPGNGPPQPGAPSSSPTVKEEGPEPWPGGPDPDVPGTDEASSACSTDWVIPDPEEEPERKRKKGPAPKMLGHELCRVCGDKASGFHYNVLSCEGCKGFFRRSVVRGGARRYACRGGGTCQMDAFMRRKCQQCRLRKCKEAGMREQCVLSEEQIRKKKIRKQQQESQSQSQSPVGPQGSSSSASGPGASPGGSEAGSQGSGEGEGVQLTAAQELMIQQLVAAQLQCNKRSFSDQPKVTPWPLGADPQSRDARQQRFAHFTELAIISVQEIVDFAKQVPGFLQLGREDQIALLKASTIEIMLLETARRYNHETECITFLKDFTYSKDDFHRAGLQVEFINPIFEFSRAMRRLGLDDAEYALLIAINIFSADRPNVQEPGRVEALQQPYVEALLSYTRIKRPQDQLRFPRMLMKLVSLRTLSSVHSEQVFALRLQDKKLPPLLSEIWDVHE
# experiment-summary: ATG_LXRb_TRANS: Attagene TRANS-FACTORIAL HepG2 Assay for human Liver X Receptor beta (LXRb) (AID 2282981)
# test-context: HepG2 Attagene TRANS GAL4-LXRb reporter, mRNA
Inconclusive results are not listed. Active and inactive are the calls of the source. How the source made its calls: active means hit-call score of the fitted dose curve at least 0.9, where 1 is the maximum; inconclusive means response in the unintended direction; inactive means score below 0.9.
Classes used: true (1) (active), false (0) (inactive)

compound	category-label
CCOS(=O)(=O)OCC	false (0)
CCOP(=S)(OCC)SCSc1ccc(Cl)cc1	false (0)
N#Cc1cc([N+](=O)[O-])ccc1N	false (0)
O=S(=O)(c1ccc(O)cc1)c1ccc(O)cc1	false (0)
CC(C)(C)OOC(C)(C)C	false (0)
Nc1cc2c3c(c1)C(c1ccccc1)=N[C@@H](NC(=O)c1cccnc1)C(=O)N3CC2	false (0)
CCC1(c2ccccc2)C(=O)N=C(O)NC1=O (stereo not drawn)	false (0)
CCCCN(CC)C(=O)SCCC	false (0)
FC(F)(F)c1ccc(Cl)cc1	false (0)
c1ccc2c(c1)Nc1ccccc1S2	false (0)
CNC(=O)Oc1ccc(N(C)C)c(C)c1	false (0)
CC1=C(C(=O)Nc2ccccc2)S(=O)(=O)CCO1	false (0)
Clc1ccc(Oc2ccccc2)cc1	false (0)
CCOC(=O)c1ccccc1N	false (0)
Cn1[nH]nnc1=S	false (0)
CCOC(=O)c1ccccc1C(=O)OCC	false (0)
c1cc2c3c(cccc3c1)CC2	false (0)
O=C(O)C(F)(OC(F)(F)C(F)(F)C(F)(F)F)C(F)(F)F (stereo not drawn)	false (0)
Oc1ccc(I)cc1	false (0)
c1nc[nH]n1	false (0)
[N-]=[N+]=[N-]	true (1)
CCOP(=S)(OCC)SCS(=O)(=O)CC	false (0)
OCC1CO1 (stereo not drawn)	false (0)
ClC(Cl)c1ccccc1	false (0)
O=S(=O)(F)C(F)(F)C(F)(F)C(F)(F)C(F)(F)C(F)(F)C(F)(F)C(F)(F)C(F)(F)F	false (0)
CN(C)C(=O)Cl	false (0)
NNC(N)=S	false (0)
ClC(Cl)(Cl)c1ccccc1	false (0)
CCCCOCCOP(=O)(OCCOCCCC)OCCOCCCC	false (0)
O=C(O)C(F)(F)C(F)(F)C(=O)O	false (0)
FC(F)(F)C(F)(C(F)(F)F)C(F)(F)C(F)(F)CC1CO1 (stereo not drawn)	false (0)
c1ccc2c(c1)sc1ccccc12	false (0)
CCOP(=O)(O)C(N)=O	false (0)

----------
# experiment-summary: ATG_Sox_CIS: Attagene CIS-FACTORIAL HepG2 Assay for human SRY-box transcription factor (SOX) (AID 2282960)
# test-context: HepG2 Attagene cis-factorial SOX reporter, mRNA; actives raise or lower the signal
The source made the active and inactive calls. How the source made its calls: active means hit-call score of the fitted dose curve at least 0.9, where 1 is the maximum; inactive means score below 0.9.
Classes used: active, inactive

compound	category-label
O=S(=O)(c1ccc(O)cc1)c1ccc(O)cc1	inactive
CO/N=C(/C(=O)OC)c1ccccc1COc1ccccc1C	inactive
O=S(=O)(F)C(F)(F)C(F)(F)C(F)(F)C(F)(F)C(F)(F)C(F)(F)C(F)(F)C(F)(F)F	inactive
C=C(C)C(=O)OCC1CO1 (stereo not drawn)	inactive
Nc1ccc([N+](=O)[O-])cc1Cl	inactive
N#Cc1ccc(O)cc1	inactive
O=c1ssc(Cl)c1Cl	active
CCOP(=S)(OCC)SCSCC	inactive
CCNc1nc(Cl)nc(NC(C)(C)C)n1	inactive
NC(=O)C(F)(F)C(F)(F)F	inactive
CCOP(=S)(OCC)SCS(=O)(=O)CC	inactive
COP(N)(=S)OC	inactive
Nc1ccc2ccccc2c1	inactive
C=CC(=O)OCC(CC)(COC(=O)C=C)COC(=O)C=C	inactive
CC(O)C#N (stereo not drawn)	inactive
Cc1cc(C)c(C(=O)P(=O)(c2ccccc2)c2ccccc2)c(C)c1	inactive
CC(=O)CCc1ccc2c(c1)OCO2	inactive
C=CC(=O)OCC(F)(F)C(F)F	inactive
CC(C)(C)c1ccccc1OP(=O)(Oc1ccccc1)Oc1ccccc1	inactive
OCC1CO1 (stereo not drawn)	inactive
CCOc1ccc(C(C)(C)COCc2cccc(Oc3ccccc3)c2)cc1	inactive
CCCCN(CC)C(=O)SCCC	inactive
FC(F)(F)c1ccc(Cl)cc1	inactive

Source listed as PubChem BioAssay (EPA / NIEHS).
